Values compiled from PubChem BioAssay (NCATS).

- Test summary: S16 Schwann cell PMP22 intronic element beta-lactamase assay (AID 624044); further: nearly all actives have a fitted effect of over 15% in size
- Test conditions: S16 rat Schwann cells, PMP22 element beta-lactamase FRET, 24 h; series mostly up to 17.1 µM
Inconclusive results are not listed. Calls of active or inactive are those of the source. The call rests on the fitted dose curve.
The categories you may choose from are active, inactive

Use the examples below as a reference point.
INSERT INTO measurements (compound, label) VALUES
  ('CC(=O)[C@]1(O)CCC2C3C=C(Cl)C4=CC(=O)C5CC5[C@@]4(C)C3CC[C@]21C (some centres not stated)', 'inactive'),
  ('C[C@]1(c2ccccc2)OC(C(=O)O)=CC1=O', 'inactive'),
  ('CC1(C)[C@@H](OC(=O)CCC(=O)O)CC[C@@]2(C)[C@H]1CC[C@@]1(C)[C@H]2C(=O)C=C2[C@H]3C[C@](C)(C(=O)O)CC[C@]3(C)CC[C@@]21C', 'inactive'),
  ('Cc1onc(-c2ccccc2Cl)c1C(=O)N[C@H]1C(=O)N2[C@H]1SC(C)(C)[C@H]2C(=O)O', 'inactive');

Q: Tell me the assay call for CCN(CC)[C@@H](C)CN1c2ccccc2Sc2ccccc21 please.
Result: inactive

Q: Just curious, what result did CCOC(=O)O[C@]1(C(=O)COC(=O)CC)CC[C@@H]2[C@@H]3CCC4=CC(=O)C=C[C@@]4(C)[C@H]3[C@H](O)C[C@]21C get here?
Result: inactive

Q: Please share the test call associated with Clc1ccc(CC[C@H](Cn2ccnc2)Sc2c(Cl)cccc2Cl)cc1 .
Result: inactive

Q: Called result for C1CCN2C[C@@H]3C[C@@H](CN4CCCC[C@H]34)[C@H]2C1
Result: inactive

Q: Any idea what this test logged for C[C@H]1CS(=O)(=O)CCN1/N=C\c1ccc([N+](=O)[O-])o1 ?
Result: inactive

Q: Outcome logged for CC(C)(C)NC[C@@H](O)COc1ccccc1C1CCCC1 in this assay:
Result: inactive
